conditions: in ethanol, 318.15 K
measured.property: solubility (mole fraction)
A bare number is all that is needed in reply.

# input So what does the record say about solubility (mole fraction) for O=C(O)c1ccccc1O ?
# output 0.197

###

conditions: in n-heptanol, 288.15 K
measured.property: solubility (mole fraction)
Output spec: single numeric token, no unit.

# input For the compound shown here, O=C(O)c1ccccc1O , give the reported solubility (mole fraction).
# output 0.138

###

conditions: in n-pentanol, 278.15 K
measured.property: solubility (mole fraction)
Enter the number alone.

# input Endpoint output: solubility (mole fraction) of O=C(O)c1ccccc1O . Value?
# output 0.113

###

details: in n-propanol, 283.15 K
measured.property: solubility (mole fraction)
A bare number is all that is needed in reply.

# input Recorded solubility (mole fraction) for O=C(O)c1ccccc1O , please?
# output 0.111

###

details: in n-pentanol, 318.15 K
measured.property: solubility (mole fraction)

# input Requested read-out: solubility (mole fraction). Entry: O=C(O)c1ccccc1O
# output 0.206

###

settings: in n-propanol, 313.15 K
measured.property: solubility (mole fraction)

# input What value of measured solubility (mole fraction) is listed for O=C(O)c1ccccc1O ?
# output 0.181

###

conditions: in n-pentanol, 293.15 K
measured.property: solubility (mole fraction)
Response field accepts a number only; no unit should be typed.

# input What value of solubility (mole fraction) has been reported for the following compound? O=C(O)c1ccccc1O
# output 0.144

###

settings: in n-butanol, 298.15 K
measured.property: solubility (mole fraction)
Answer using only a numeral; do not append any unit.

# input Give the measured solubility (mole fraction) of O=C(O)c1ccccc1O .
# output 0.148

###

details: in n-hexanol, 283.15 K
measured.property: solubility (mole fraction)
Give your answer as a number; write no unit.

# input May I ask what solubility (mole fraction) has been recorded for O=C(O)c1ccccc1O ?
# output 0.127

###

settings: in n-pentanol, 288.15 K
measured.property: solubility (mole fraction)
Just the number.

# input Look up solubility (mole fraction) for this compound: O=C(O)c1ccccc1O
# output 0.132

###

details: in ethanol, 278.15 K
measured.property: solubility (mole fraction)
# respond with the number and nothing more

# input Consider the molecule shown here: O=C(O)c1ccccc1O What is its recorded solubility (mole fraction)?
# output 0.108

###

details: in n-heptanol, 298.15 K
measured.property: solubility (mole fraction)
Reply with just the number.

# input Bench note: what solubility (mole fraction) did O=C(O)c1ccccc1O show?
# output 0.16

###

details: in n-heptanol, 313.15 K
measured.property: solubility (mole fraction)
Reply briefly: the number, and no unit.

# input Which value of solubility (mole fraction) has been reported for O=C(O)c1ccccc1O in the records?
# output 0.197

###

conditions: in n-propanol, 293.15 K
measured.property: solubility (mole fraction)

# input Item O=C(O)c1ccccc1O has what recorded solubility (mole fraction)?
# output 0.131
